# System: LOX IMVI melanoma
# method-description: NCI-60 one-dose screen, 48 h (100 = growth as untreated, 0 = no growth, -100 = all killed)
# condition-set: 10 µM unless noted
# Description: Growth inhibition of the LOX IMVI human tumor cell line is measured as a screen for anti-cancer activity. Cells are grown in 96 well plates and exposed to the test compound for 48 hours. Compounds are tested at a single concentration, which is 10^-5 M for most compounds. The reported endpoint is percent growth (GI% or GIPRCNT), where numbers from 0 - 100% represent growth inhibition, and numbers from -100% - 0 represent cell death. For example, a value of 40 represents 60% growth inhibition. […]
This is part of a sample that, as a whole, favours compounds with a hit. Of some 83,000 tested, about 20% had one in any assay. Active and inactive are the calls of the source. Rule for the calls: active = growth percent below 10; inactive = the rest.
Provide the recorded growth for the entries that follow.

growth reading for c1ccc2cc3nc4cc5ccccc5cc4nc3cc2c1 : 86.1% (inactive)

growth reading for O=c1cc(C2NNC(=S)N2)c2ccc3ccccc3c2o1 (stereo not given) : 87.5% (inactive)

growth reading for OC(c1cccc(-n2ccc(C(F)(F)F)n2)c1)c1cnccc1NC1CCCCCC1 (stereo not given) : -91.4% (active)

growth reading for O=C(/C=C/c1ccco1)c1ccc(Nc2nc(Nc3ccc(F)cc3)nc(Nc3ccc(Cl)cc3)n2)cc1 : 74.7% (inactive)

growth reading for COc1cc(/C=N/n2c(CN3CCOCC3)nc3ccccc3c2=O)cc(OC)c1OC : 100% (inactive)

growth reading for N/C(=N/N=C/c1ccccc1)N/N=C\c1ccccc1 : 62.1% (inactive)

growth reading for COc1cc2c(cc1-c1c(C)noc1C)ncc1nc(C3CCC(F)(F)CC3)n(C3CCC(OC(F)F)CC3)c12 (stereo not given) : 35.2% (inactive)

growth reading for CCOc1c(C#N)nnc2c(C#N)c(NC(=O)c3ccccc3)nn12 : 95.5% (inactive)

growth reading for C=CCOC1=CC(=O)c2ccccc2C1=O : 3.82% (active)

growth reading for CCN1CCN(c2nc(C)cc(NCc3cc(Nc4ccnc5cc(Cl)ccc45)ccc3F)n2)CC1 : -81.5% (active)

growth reading for COc1cc(/C=C/C(=O)c2c(C)nc3ccccc3c2/C=C/c2ccc(C)cc2)cc(OC)c1OC : -22.8% (active)

growth reading for O=c1c2c3c(sc2n2c(-c4cn(-c5ccccc5)nc4-c4ccc(Cl)cc4)nnc2n1Cc1ccccc1)CCCC3 : 72.3% (inactive)

growth reading for O=c1[nH][n+](-c2ccc(Cl)cc2)no1 : 28.4% (inactive)

growth reading for N#Cc1c(-c2ccccc2)cc(-c2ccc(Nc3nc(Nc4ccc(F)cc4)nc(Nc4ccc(F)cc4)n3)cc2)nc1N : 95.5% (inactive)

growth reading for NC(N)=Nc1nc2ccccc2n2c1nc1ccccc12 : 20.6% (inactive)

growth reading for O=C(NC(Cc1nnc2n(Cc3ccccc3)c(=O)c3c4c(sc3n12)CCCC4)c1ccc(Cl)cc1)c1ccccc1 (stereo not given) : 79.4% (inactive)

growth reading for Cc1ccc(-n2nc3c(c(C#N)c2=O)CC(c2ccccc2Cl)C([N+](=O)[O-])=C3O)cc1 (stereo not given) : 81.4% (inactive)

growth reading for O=[N+]([O-])c1ccc(Sc2cccc[n+]2[O-])c2nonc12 : 2.14% (active)

growth reading for O=C(c1ccccc1)c1c(/C=C/c2ccccc2)nc2ccccc2c1/C=C/c1ccc(Br)cc1 : 90.6% (inactive)

growth reading for COc1cccc(-c2nc3sccn3c2-c2ccnc(NCCNS(=O)(=O)c3cccc(Cl)c3)c2)c1 : 46.7% (inactive)

---

Provide the recorded growth for the entries that follow.
# Tested on: SK-MEL-28 melanoma
# method-description: NCI-60 one-dose screen, 48 h (100 = growth as untreated, 0 = no growth, -100 = all killed)
# condition-set: 10 µM unless noted
About 83,000 compounds went through this panel and 20% of them were active in at least one assay; those are over-represented in the sample as a whole.
Numeric answer only, unit % assumed.

growth reading for CCc1ccccc1NC(=O)/C(C#N)=C/c1ccc(OC)cc1 : 92.9

growth reading for COc1ccc(-c2cc(-c3cc(OC)c(OC)c(OC)c3)c(C#N)c(N3CCOCC3)n2)cc1O : 60

growth reading for c1ccc2cc3nc4cc5ccccc5cc4nc3cc2c1 : 96.9

growth reading for COc1ccc(S(=O)(=O)NCCNc2nccc(-c3c(-c4cccc(F)c4)nc4sccn34)n2)cc1 : 60

growth reading for CCc1ccccc1-n1c(N)c(C#N)c(-c2ccc(N(C)C)cc2)c(C#N)c1=O : 100

growth reading for Cc1c2c(c(C)c3c1oc1cc(O)ccc13)C(=O)N(CCN1CCCCC1)C2=O : 106

growth reading for COc1ccc(-c2nc3sccn3c2-c2cc(-c3cc(OC)c(OC)c(OC)c3)on2)cc1 : 127

growth reading for Cc1ccc2c(c1)Sc1c(ccc3ccccc13)N2 : 84.7

growth reading for COc1cccc(-c2nn(-c3ccccc3)cc2-c2ccnc(NCCNC(=O)Nc3ccccc3)c2)c1 : 77.7

growth reading for Cn1c(-c2c(N)n(Cc3ccc(C(F)(F)F)cc3)c3nc(C#N)c(C#N)nc23)nc2ccccc21 : 28.8

---

# Tested on: RXF 393 renal
# method-description: NCI-60 one-dose screen, 48 h
# condition-set: 10 µM unless noted
About 83,000 compounds went through this panel and 20% of them were active in at least one assay; those are over-represented in the sample as a whole. Calls of active or inactive are those of the source. Rule for the calls: active = growth percent below 10; inactive = the rest.
Parameter call: string, one of YES = active, NO = inactive

Ask | Status in this test for N/C(=N/N=C/c1ccccc1)N/N=C\c1ccccc1 ?
Reply | NO

Ask | Status in this test for Nc1nc(N)c2c(n1)NC(c1ccccc1)C1CCc3ccccc3C1=N2 (stereo not given) ?
Reply | NO

Ask | Status in this test for CC1=CN2C(=O)C3C4=C(CCCC4)SC3N=C2CN1c1c(C)cccc1C (stereo not given) ?
Reply | NO

Ask | Status in this test for O=C(Cc1ccc(F)c(F)c1)Nc1cc(C2(C(F)(F)F)CC2)nn1Cc1ccccc1 ?
Reply | YES

Ask | Status in this test for CC/C=C/C/C=C/C/C=C/C/C=C/C/C=C/C/C=C/CCC(=O)Nc1ccn([C@@H]2O[C@H](CO)[C@@H](O)C2(F)F)c(=O)n1 ?
Reply | NO

---

# System: HOP-92 NSCLC
# method-description: NCI-60 one-dose screen, 48 h
# condition-set: 10 µM unless noted
# Description: Growth inhibition of the HOP-92 human Non-Small Cell Lung tumor cell line is measured as a screen for anti-cancer activity. Cells are grown in 96 well plates and exposed to the test compound for 48 hours. Compounds are tested at a single concentration, which is 10^-5 M for most compounds. The reported endpoint is percent growth (GI% or GIPRCNT), where numbers from 0 - 100% represent growth inhibition, and numbers from -100% - 0 represent cell death. […]
This is part of a sample that, as a whole, favours compounds with a hit. Of some 83,000 tested, about 20% had one in any assay. Activity calls are given as the source filed them. The calls were made as follows: active = growth percent below 10; inactive = the rest.
Parameter call: string, one of Yes for active, No for inactive

Ask | Status in this test for CC(C)(C)C(CCc1ccc(Cl)cc1)N1CCN(C2CCCCC2)CC1 (stereo not given) ?
Reply | No

Ask | Status in this test for COc1ccc(-c2nc(SCCC(C)C)nc(N/N=C\c3cccc(Cl)c3)c2C#N)cc1 ?
Reply | No

Ask | Status in this test for COc1ccc(NC(=O)CSc2nc(C)c(C(C)=O)n2-c2ccc(Cl)cc2)cc1 ?
Reply | No

Ask | Status in this test for Cn1cc(-c2csc(-c3cccc(F)c3)n2)c2cccnc21 ?
Reply | Yes

Ask | Status in this test for CCCCCCCCCCCCCCCCCCOc1ccccc1CC(=O)OCCC[N+](C)(C)C ?
Reply | No

Ask | Status in this test for Cc1cc(NCCCCNc2ccnc3cc(Cl)ccc23)nc(Nc2ccc(C(=O)N3CCCCC3)cc2)n1 ?
Reply | No

Ask | Status in this test for O=C(NCCCNc1cc(-c2cn(-c3ccccc3)nc2-c2cccc(O)c2)ccn1)c1ccccc1 ?
Reply | No

Ask | Status in this test for CC(C)CC(NC(=O)CN(Cc1ccccc1)S(C)(=O)=O)C(=O)O (stereo not given) ?
Reply | Yes

Ask | Status in this test for COC(=O)c1c2c(c(C)[n+]([O-])c1C)C(=O)C(NCc1ccc(F)c(Cl)c1)=CC2=O ?
Reply | No

Ask | Status in this test for COc1cc(/C=C/C(=O)c2c(C)nc3ccccc3c2/C=C/c2ccc(C)cc2)cc(OC)c1OC ?
Reply | No

---

# System: U251 CNS
# method-description: NCI-60 one-dose screen, 48 h
# condition-set: 10 µM unless noted
The panel holds about 83,000 compounds, 20% with a hit somewhere; the sample as a whole holds those more often. Active and inactive are the calls of the source. Rule for the calls: active = growth percent below 10; inactive = the rest.
Parameter call: string, one of active, inactive

Ask | Status in this test for CN(C)CC1=NC2SC=C(c3ccccc3)C2C(=O)N1CC#N (stereo not given) ?
Reply | inactive

Ask | Status in this test for O=C(N/N=C/C=C/c1ccc([N+](=O)[O-])o1)c1cc2ccccc2cc1O ?
Reply | active

Ask | Status in this test for COc1ccc(-c2nc(SC(C)C)nc(NNC(N)=S)c2C#N)cc1 ?
Reply | inactive

Ask | Status in this test for COc1cc(/C=C/C(=O)c2c(C)nc3ccccc3c2C)ccc1OCCCN1CCN(C(=O)c2ccco2)CC1 ?
Reply | inactive

Ask | Status in this test for O=C1OC(c2nc3ccccc3s2)=C/C1=C\c1ccc(O)cc1 ?
Reply | inactive

Ask | Status in this test for Cc1cc[c-]cc1.Fc1c[c-]c(-c2ccccn2)c(F)c1.[Pt+2].c1ccc(P(C[PH+](c2ccccc2)c2ccccc2)c2ccccc2)cc1 ?
Reply | inactive

Ask | Status in this test for C#Cc1cccc(NC(=O)c2ccc(NC(=O)CCl)cc2)c1 ?
Reply | active

Ask | Status in this test for O=c1cc(C2NNC(=S)N2)c2ccc3ccccc3c2o1 (stereo not given) ?
Reply | inactive

Ask | Status in this test for COC(=O)c1c2c(c(C)[n+]([O-])c1C)C(=O)C(NCc1ccc(F)cc1)=CC2=O ?
Reply | active

Ask | Status in this test for Cc1ccc(CCC(=O)Nc2ncc(Cc3cc(Cl)ccc3Cl)s2)o1 ?
Reply | inactive

Ask | Status in this test for Cc1c(C)c2c(c(C)c1OCC(=O)O)CC[C@@](C)(CCC[C@@H](C)CCC[C@@H](C)CCCC(C)C)O2 ?
Reply | active

Ask | Status in this test for COC(=O)c1ccc(C2Nc3ccc(S(=O)(=O)Nc4ccc(C)c(C)c4)cc3C3OCCC23)cc1 (stereo not given) ?
Reply | inactive

Ask | Status in this test for Clc1cccc(Cl)c1/C=C/c1cc(/C=C/c2c(Cl)cccc2Cl)[nH]n1 ?
Reply | inactive

Ask | Status in this test for CCOC(=O)C/C(C)=N\NC(=O)c1ccncc1 ?
Reply | inactive

Ask | Status in this test for COc1cccc(-c2nc3sccn3c2-c2ccnc(NCCNS(=O)(=O)c3ccc(C(F)(F)F)cc3)c2)c1 ?
Reply | inactive

Ask | Status in this test for O=S(=O)(Nc1cccc(Cl)c1)c1ccc(-c2cnc(C3CC3)o2)cc1 ?
Reply | inactive

Ask | Status in this test for NNC(=O)c1nc(N)n(-c2ccc(S(N)(=O)=O)cc2)n1 ?
Reply | inactive

Ask | Status in this test for COc1cc(C(=O)/C=C/c2c(-c3ccc(F)cc3)nc3sc(C)cn23)cc(OC)c1OC ?
Reply | inactive

Ask | Status in this test for COc1cccc(-c2nn(-c3ccccc3)cc2-c2ccnc(NCCCNC(=O)Nc3ccc(Cl)c(Cl)c3)c2)c1 ?
Reply | active

Ask | Status in this test for COc1ccc(NC(=O)CSc2nnc(-c3cc(-c4ccccc4)nc4ccccc34)n2-c2ccccc2)cc1 ?
Reply | inactive

Ask | Status in this test for Oc1c(CN2CCCC2)cc(COCc2ccc(Br)cc2)c2cccnc12 ?
Reply | active

Ask | Status in this test for O=[N+]([O-])c1ccc(C2CC(c3ccccc3)=Nc3ccccc3S2)cc1 (stereo not given) ?
Reply | inactive

Ask | Status in this test for COc1ccc(-c2cc(-c3ccc(Nc4nc(Nc5ccc(Cl)cc5)nc(Nc5ccc(Cl)cc5)n4)cc3)nc(N)c2C#N)cc1 ?
Reply | inactive

Ask | Status in this test for C[n+]1cc2c3c(ccc2c2ccc4cc5c(cc4c21)OCO5)OCO3 ?
Reply | active

Ask | Status in this test for NC[C@H](O)c1ccc(O)c(O)c1 ?
Reply | inactive

Ask | Status in this test for COc1ccc(N=C(c2ccccc2)C2C(=O)c3ccccc3C2=O)cc1 ?
Reply | inactive

Ask | Status in this test for Cc1cccc(NC(=O)CSc2nc3ccccc3[nH]2)c1 ?
Reply | inactive

Ask | Status in this test for CN(C)CC1C(=O)O[C@H]2[C@H]1CC/C(COC(=O)c1cc3ccccc3[nH]1)=C\CC[C@@]1(C)O[C@@H]21 (stereo not given in full) ?
Reply | active

Ask | Status in this test for COC(=O)/C=C1\S/C(=N\NS(=O)(=O)c2ccc(C)cc2)N(c2ccccc2)C1=O ?
Reply | inactive

Ask | Status in this test for Clc1cc(Cl)cc(Nc2ccc3cc(OCCCN4CCOCC4)ccc3n2)c1 ?
Reply | active

Ask | Status in this test for O=C(O)c1ccc2c(c1Cl)C(=O)c1ccccc1C2=O ?
Reply | inactive

Ask | Status in this test for COc1ccc2c(c1)CCCN2c1c2ccccc2nc2ccccc12 ?
Reply | inactive

Ask | Status in this test for COC1=CC(=O)C[C@@H](C)[C@]12Oc1c(Cl)c(OC)cc(OC)c1C2=O ?
Reply | inactive

Ask | Status in this test for CCCCCS(=O)(=O)Nc1ccc(C(=O)O)cc1 ?
Reply | inactive

Ask | Status in this test for N#CC1=C(/N=C/c2ccccc2)Oc2c(ccc3ccccc23)C1c1ccccc1 (stereo not given) ?
Reply | inactive

Ask | Status in this test for O=C(CSc1nnc(-c2ccc(NC(=O)c3cccnc3)cc2)o1)Nc1cccc(Br)c1 ?
Reply | inactive

Ask | Status in this test for COc1cc(OC)cc(C2CC(=O)Nc3c2c(C)nn3-c2nc3ccccc3[nH]2)c1 (stereo not given) ?
Reply | inactive

Ask | Status in this test for O=C(COc1ccc(/C=C2\Oc3ccccc3C2=O)cc1)Nc1nc2ccccc2s1 ?
Reply | active

Ask | Status in this test for N#CC1=C(c2ccc(Br)cc2)NC(SCC(=O)c2ccc(Br)cc2)NC1=O (stereo not given) ?
Reply | inactive

Ask | Status in this test for O=C(c1ccccc1)c1c(/C=C/c2ccc(Cl)cc2)nc2ccccc2c1/C=C/c1cccs1 ?
Reply | inactive

All figures here come from PubChem BioAssay (NCI).
